# Tested on: C57BL/6J mice (mild hyperglycemic)
# Protocol details: In vivo glucose reduction, acute single dose 120-min time-course, i.p. route
# Parameters: species or system mouse; unit not given here
# Reported conditions: male C57BL/6J mice, 50 nM/kg i.p., 60 min
Provide the recorded blood glucose levels for the entries that follow.
Field format: numeric only.

Exercise: Record request: blood glucose levels value, item CCc1cc(OC)ccc1-c1ccc(CC(CNC(CCCc2ccccc2)C(N)=O)NC[C@H](CC(=O)O)NC(=O)[C@H](CO)NC(=O)[C@@H](NC(=O)C(C)(Cc2ccccc2F)NC(=O)[C@@H](NC(=O)CNC(=O)[C@H](CCC(N)=O)NC(=O)C(C)(C)NC(=O)[C@H](Cc2c[nH]cn2)NC(C)=O)[C@H](C)O)[C@H](C)O)cc1 (single isomer, unassigned) [Seq. ID. 197]
Solution: 112

Exercise: Record request: blood glucose levels value, item CCc1cc(OC)ccc1-c1ccc(CC(NC(=O)[C@H](CC(=O)O)NC(=O)[C@H](CO)NC(=O)[C@@H](NC(=O)C(C)(Cc2ccccc2F)NC(=O)[C@@H](NC(=O)CNC(=O)C(CCC#N)NC(=O)C(C)(C)NC(=O)[C@H](Cc2c[nH]cn2)NC(C)=O)[C@@H](C)O)[C@@H](C)O)C(=O)NC(CCCc2ccccc2F)C(N)=O)cc1 (single isomer, unassigned) [Seq. ID. 207]
Solution: 128

Exercise: Record request: blood glucose levels value, item CCc1cc(OC)ccc1-c1ccc(CC(CNC(CCCc2ccccc2F)C(N)=O)NC[C@H](CC(=O)O)NC(=O)[C@H](CO)NC(=O)[C@@H](NC(=O)C(C)(Cc2ccccc2F)NC(=O)[C@@H](NC(=O)CNC(=O)[C@H](CCC(N)=O)NC(=O)C(C)(C)NC(=O)[C@H](Cc2c[nH]cn2)NC(=O)OC)[C@@H](C)O)[C@@H](C)O)cc1 (single isomer, unassigned) [Seq. ID. 196]
Solution: 113

* * *

Provide the recorded half-life at 2 μM for the entries that follow.
# Protocol details: Stability in liver microsomes
# Format: in vitro ADME
# Reported conditions: pH 7.8; 2 μM peptidomimetic, human liver microsomes, 37° C.; read-out: half-life (t1/2) when incubated with liver microsomes
# Method: Reactions were terminated by the addition of TFA/H2O (15 mL, 10% (v/v)). […] The column was equilibrated with TFA/H20, at a flow rate of 1 mL/min.
Non-standard residues stand in square brackets, D forms with d. Residues, ends and D or L forms follow the SMILES beside them. ξ: configuration not given here. *: point of attachment. Leu(5,5,5,5',5',5'-F6) = N[C@@H](CC(C(F)(F)F)C(F)(F)F)C(=O)O; X4 = CCc1cc(OC)ccc1-c1ccc(CC(CNC(CCCc2ccccc2F)C(N)=O)N*)cc1; ξαMePhe(2-F) = CC(N)(Cc1ccccc1F)C(=O)O; aThr = C[C@H](O)[C@H](N)C(=O)O; Aib = CC(C)(N)C(=O)O
A number alone suffices; assume h.

Exercise: Record request: half-life at 2 μM value, item CCc1cc(OC)ccc1-c1ccc(CC(NC(=O)[C@H](CC(=O)O)NC(=O)[C@H](CO)NC(=O)[C@@H](NC(=O)C(C)(Cc2ccccc2F)NC(=O)[C@@H](NC(=O)CNC(=O)C(CCC#N)NC(=O)C(C)(C)NC(=O)[C@@H](N)Cc2c[nH]cn2)[C@@H](C)O)[C@H](C)O)C(=O)NC(CCCc2ccccc2F)C(N)=O)cc1 (single isomer, unassigned)
Solution: 2

Exercise: Record request: half-life at 2 μM value, item CCc1cc(OC)ccc1-c1ccc(CC(NC(=O)[C@H](CC(=O)O)NC(=O)[C@H](CO)NC(=O)[C@@H](NC(=O)[C@H](Cc2ccccc2)NC(=O)[C@@H](NC(=O)CNC(=O)C(CCC#N)NC(=O)C(C)(C)NC(=O)[C@@H](N)Cc2c[nH]cn2)[C@@H](C)O)[C@@H](C)O)C(=O)NC(CCCc2ccc(OC)cc2Cl)C(N)=O)cc1 (single isomer, unassigned)
Solution: 2

Exercise: Record request: half-life at 2 μM value, item CCc1cc(OC)ccc1-c1ccc(CC(CNC(CCCc2ccccc2F)C(N)=O)NC(=O)[C@H](CC(=O)O)NC(=O)[C@H](CO)NC(=O)[C@@H](NC(=O)C(C)(Cc2ccccc2F)NC(=O)[C@@H](NC(=O)CNC(=O)[C@H](CC(C(F)(F)F)C(F)(F)F)NC(=O)C(C)(C)NC(=O)[C@@H](N)Cc2c[nH]cn2)[C@H](C)O)[C@H](C)O)cc1 (stereo partly drawn) [compound 214] (H-H[Aib][Leu(5,5,5,5',5',5'-F6)]G[aThr][ξαMePhe(2-F)][aThr]SD-X4)
Solution: 0.5

Exercise: Record request: half-life at 2 μM value, item CCc1cc(OC)ccc1-c1ccc(CC(NC(=O)[C@H](CC(=O)O)NC(=O)[C@H](CO)NC(=O)[C@@H](NC(=O)[C@H](Cc2ccccc2)NC(=O)[C@@H](NC(=O)CNC(=O)C(CCC#N)NC(=O)C(C)(C)NC(=O)[C@@H](N)Cc2c[nH]cn2)[C@@H](C)O)[C@@H](C)O)C(=O)NC(CCCc2ccc(C(F)(F)F)cc2F)C(N)=O)cc1 (single isomer, unassigned)
Solution: 2

Exercise: Record request: half-life at 2 μM value, item CCc1cc(OC)ccc1-c1ccc(CC(NC(=O)[C@H](CC(=O)O)NC(=O)[C@H](CO)NC(=O)[C@@H](NC(=O)C(C)(Cc2ccccc2F)NC(=O)[C@@H](NC(=O)CNC(=O)C(CCC#N)NC(=O)C(C)(C)NC(=O)[C@@H](N)Cc2c[nH]cn2)[C@H](C)O)[C@@H](C)O)C(=O)NC(CCCc2ccccc2)C(N)=O)cc1 (single isomer, unassigned)
Solution: 2

Exercise: Record request: half-life at 2 μM value, item CCc1cc(OC)ccc1-c1ccc(CC(NC(=O)[C@H](CC(=O)O)NC(=O)[C@H](CO)NC(=O)[C@@H](NC(=O)C(C)(Cc2ccccc2F)NC(=O)[C@@H](NC(=O)CNC(=O)[C@H](CC(C(F)(F)F)C(F)(F)F)NC(=O)C(C)(C)NC(=O)[C@@H](N)Cc2c[nH]cn2)[C@@H](C)O)[C@@H](C)O)C(=O)NC(CCCc2ccccc2)C(N)=O)cc1 (stereo partly drawn)
Solution: 0.5
